- target_or_system: HFIP-treated Aβ1-42 peptides (Homo sapiens, UniProt P05067)
- Construct: (HFIP)-treated Aβ1-42 peptides
- Sequence (P05067 672-713): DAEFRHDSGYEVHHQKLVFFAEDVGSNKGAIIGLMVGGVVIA
- protocol_summary: Aβ aggregation inhibition, thioflavin T (ThT)-based fluorimetric assay
- Type: biochemical
- measurement_conditions: Table 2; 20 μM compound, 10 μM Aβ, fluorescence at plateau over 24 h; <10 = no inhibition observed; read-out: Aβ1-42 Aggregation (% Inhib. at 20 μM)
- Method: The formation of amyloid aggregates is crucial for the path mechanism of AD. Therefore, we also decided to check the inhibitory activity of the synthesized compounds against the Aβ aggregation. […] The intensity of fluorescence is weak when the dye is free and increases when the dye binds to β-sheet structures. […] The ThT fluorescence data was recorded over 24 h and the obtained results were then plotted against time, as illustrated in Figure 5. […]
Please go through the items and note down their inhibition at 20 µM.
One number for each entry, in %.

Respectfully, I request inhibition at 20 µM for each entry included below.
1. Cc1ccc(C#CCOc2ccccc2/C=C/c2cc(=O)c3ccccc3o2)cc1
2. O=S1(=O)OC(c2ccc(O)cc2)(c2ccc(O)cc2)c2ccccc21 [Phenol Red, Phenol red, reference compound]

1. 66
2. 20

====

- target_or_system: HFIP-treated Aβ1-42 peptides (Homo sapiens)
- Construct: (HFIP)-treated Aβ1-42 peptides
- protocol_summary: Aβ aggregation inhibition, thioflavin T (ThT)-based fluorimetric assay
- Format: biochemical
- measurement_conditions: Table 2; 20 μM compound, 10 μM Aβ, fluorescence at plateau over 24 h; <10 = no inhibition observed; read-out: Aβ1-42 Aggregation (% Inhib. at 20 μM)
reported_endpoint: inhibition at 20 µM

C#CCOc1ccccc1/C=C/c1cc(=O)c2ccc(OC)cc2o1: < 10%
COc1ccc2c(=O)c3cc4c(cc3oc2c1)-c1ccccc1OC4: 70%

Respectfully, I request inhibition at 20 µM for each entry included below.
1. C#CCOc1ccccc1/C=C/c1cc(=O)c2ccccc2o1
2. C#CCN(CC#C)c1ccccc1/C=C/c1cc(=O)c2ccccc2o1
3. C#CCOc1cc(OC)ccc1/C=C/c1cc(=O)c2ccc(OC)cc2o1

< 10%
18%
48%

====

- target_or_system: AChE (Electrophorus electricus—eeAChE) (Electrophorus electricus)
- Sequence (O42275 24-633): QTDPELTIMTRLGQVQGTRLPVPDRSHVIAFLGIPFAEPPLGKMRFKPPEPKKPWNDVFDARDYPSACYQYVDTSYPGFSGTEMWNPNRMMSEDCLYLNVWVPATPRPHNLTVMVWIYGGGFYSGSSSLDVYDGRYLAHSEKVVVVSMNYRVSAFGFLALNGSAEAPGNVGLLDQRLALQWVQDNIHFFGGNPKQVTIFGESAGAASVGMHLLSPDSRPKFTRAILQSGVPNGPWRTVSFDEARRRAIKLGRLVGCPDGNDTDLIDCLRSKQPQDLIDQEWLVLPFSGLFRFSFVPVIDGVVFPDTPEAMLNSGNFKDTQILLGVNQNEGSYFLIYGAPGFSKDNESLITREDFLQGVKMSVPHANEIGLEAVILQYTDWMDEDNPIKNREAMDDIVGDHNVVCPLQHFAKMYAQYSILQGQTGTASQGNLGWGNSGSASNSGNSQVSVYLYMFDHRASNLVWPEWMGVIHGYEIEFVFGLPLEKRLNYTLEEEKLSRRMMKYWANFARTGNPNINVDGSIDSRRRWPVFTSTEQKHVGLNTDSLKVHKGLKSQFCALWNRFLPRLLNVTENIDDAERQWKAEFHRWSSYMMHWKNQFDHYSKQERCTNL
- protocol_summary: biochemical
- Format: biochemical
- Procedure: The synthesized compounds were evaluated for their inhibitory activity against AChE (Electrophorus electricus—eeAChE), using an adaptation of Ellman’s method. […] The inhibitory activity of the synthesized compounds towards AChE was evaluated spectrophotometrically by a 96-well microplate modified Ellman’s method. […] The enzyme inhibition was calculated using the […] formula, where S and B are the enzyme activities with and without the test compound, respectively. […]
reported_endpoint: IC50 (µM)
Answers are plain numbers, in µM.

O=c1c2ccccc2oc2cc3c(cc12)COc1ccccc1-3 [Compound 4a, 6H,8H-Chromeno[3,4-b]xanthen-8-one]: 2.1
C#CCOc1ccccc1/C=C/c1cc(=O)c2ccccc2o1: 9.5

Identify the reported IC50 for the following entry. C#CCOc1ccccc1/C=C/c1cc(=O)c2ccc(OC)c(OC)c2o1
2.4
